molecular target: human vasopressin V2 receptor subtype (Homo sapiens, UniProt P30518); construct: host or cells: CHO cells, stably transfected (pZeoSV vector); assay: Vasopressin binding in CHO cell membranes expressing human vasopressin V2 subtype receptors ([3H]arginine vasopressin radioligand binding); details: 100 nM
Sequence (P30518 whole entry): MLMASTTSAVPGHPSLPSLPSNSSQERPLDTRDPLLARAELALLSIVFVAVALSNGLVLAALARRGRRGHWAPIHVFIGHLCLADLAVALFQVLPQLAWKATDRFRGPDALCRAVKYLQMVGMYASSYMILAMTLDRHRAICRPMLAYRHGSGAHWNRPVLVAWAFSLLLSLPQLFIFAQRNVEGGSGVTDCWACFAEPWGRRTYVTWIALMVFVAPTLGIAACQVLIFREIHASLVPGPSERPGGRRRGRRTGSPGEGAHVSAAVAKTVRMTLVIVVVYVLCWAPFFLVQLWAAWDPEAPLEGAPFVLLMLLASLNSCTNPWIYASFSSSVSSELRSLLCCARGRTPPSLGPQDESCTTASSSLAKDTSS
TEST_READOUT: inhibition at 0.1 µM (%)

Answered examples (5):
> print(dat)
                                   compound  reading.unit  observed.value
1  COc1cc(-c2ccccc2C)c(Cl)cc1C(=O)N1Cc2ccc(C(=O)N3CCN(c4ccccn4)CC3)n2Cc2ccccc21             %               5
2  COc1cc(C(=O)N2Cc3ccc(C(=O)N(C)CCc4ccccn4)n3Cc3ccccc32)ccc1-n1c(C)ccc1C             %               2
3  COc1cccc(-c2ccc(C(=O)N3Cc4ccc(C(=O)N(C)CCc5ccncc5)n4Cc4ccccc43)cc2C)c1             %              10
4  COc1cc(C(=O)N2Cc3ccc(C(=O)N(C)Cc4cccnc4)n3Cc3ccccc32)ccc1-c1cccc2ccccc12             %               0
5  COc1cc(-c2ccccc2C)c(Cl)cc1C(=O)N1Cc2ccc(C(=O)N3CCCCC3c3cccnc3)n2Cc2ccccc21 (centres unmarked)             %              29

I: COc1cc(-c2ccccc2C)c(Cl)cc1C(=O)N1Cc2ccc(C(=O)NCCc3ccccn3)n2Cc2ccccc21
II: COc1ccccc1-c1ccc(C(=O)N2Cc3ccc(C(=O)NCc4ccncc4)n3Cc3ccccc32)cc1OC
Endpoint returns whichever of I and II has the numerically higher inhibition at 0.1 µM. Choose, then provide that item's label.
II
(II: 16%, I: 5%)
